Molecular target: N′186 (Caldanaerobacter subterraneus, UniProt Q8RD41, C137S/L167D)
Details: SD, n = 3
readout_type: Kd (nM)
Give bare numbers, in nM.

For reference, reported Kd for OC1OC[C@@H](O)[C@@H](O)[C@H]1O (stereo partly shown) stands at 38.1

* * *

Target: AFF210 (Caldanaerobacter subterraneus, UniProt Q8RD41, C137S/D254S/INS245C/L167D)
Assay type: binding
Conditions: SD, n = 3
readout_type: Kd (nM)
Numbers only, in nM.

AFF210 (Caldanaerobacter subterraneus, UniProt Q8RD41, C137S/D254S/INS245C/L167D) Kd of OC1OC[C@@H](O)[C@@H](O)[C@H]1O (stereo partly drawn) [ribose, D-ribose] is 26.1
